Reference source for all entries: patent US10653688B2

Tested on: pT212Tau in Dyrk1a- and MAPT-overexpressing HEK293T cells
Test: Tau phosphorylation at Threonine 212 (pT212Tau) sandwich ELISA in double transfected cells
Conditions: Homo sapiens, HEK-293T, read-out: Thr212 EC50 (μM)
// boundary case: EC50 equal to 0.6 µM maps to condition not met; strictly smaller maps to condition met

Consider the worked cases shown below.
O=C(Nc1cc2cc(-c3cncc(NC4CCNCC4)n3)ccc2cn1)C1CCOCC1 [Compound 109] | condition met
CN1CCC(c2cccc(C(=O)Nc3cc4cc(-c5cncc(C(F)F)c5)ccc4cn3)c2)CC1 [Compound 27] | condition not met

In the following, a different molecule is considered.
Prompt: For this molecule, is EC50 lower than 0.6 µM? O=C(Nc1cc2cc(-c3cnccn3)ccc2cn1)[C@H]1CC[C@H](CN2CC(F)C2)CC1 [Compound 72]
Completion: condition not met

---

System: secreted cytokines TNFα, IL-6 and KC-GRO in BV-2 cells (mouse microglial cells)
Test: Secreted cytokines in lipopolysaccharide-stimulated mouse glial cell line
Assay type: cell-based
Settings: LPS 250 ng/mL 5 hours, table does not say which cytokine
Recorded EC50 by entry
// return numeric value only (unit: µM, not printed)

Examples with answers:
O=C(CN1CCCC1)Nc1cc2cc(-c3cncc(F)c3)ccc2cn1 | 1.33
O=C(CCN1CCOCC1)Nc1cc2cc(-c3cncc(F)c3)ccc2cn1 | 0.628
O=C(Nc1cc2cc(-c3cnccn3)ccc2cn1)[C@H]1CC[C@H](N2CCOCC2)CC1 | 0.629
CN1CCN(C[C@H]2CC[C@H](C(=O)Nc3cc4cc(-c5cnccn5)ccc4cn3)CC2)CC1 | 0.694

Switching to the query record.
Prompt: // query EC50 value for entry `CN1CCC(C(=O)Nc2cc3cc(-c4cncc(C#N)c4)ccc3cn2)CC1`
Completion: 0.64

---

Tested on: secreted cytokines TNFα, IL-6 and KC-GRO in BV-2 cells (mouse microglial cells)
Test: Secreted cytokines in lipopolysaccharide-stimulated mouse glial cell line
Assay type: cell-based
Conditions: LPS 250 ng/mL 5 hours, table does not say which cytokine
Procedure: Representative compounds were screened using the cell-based assay procedure for secreted cytokines in a Lipopolysaccharide-stimulated mouse glial cell line described below. BV-2 cells (mouse microglial cells) were cultured in 1:1 DMEM medium supplemented with 10% FBS, and 1% penicillin/streptomycin. BV-2 cells are plated at 35,000 cells/well in a volume of 100 μl for at least 4 hours before compounds are added. […]
Sorting guide: entries reporting EC50 beneath 200 nM go in the Met pile, the rest go in the Not met pile.

Would you please look over these solved cases?
O=C(CN1CCCC1)Nc1cc2cc(-c3cccnc3)ccc2cn1 | Met
O=C(Nc1cc2cc(-c3cncc(NC4CCNCC4)n3)ccc2cn1)C1CCOCC1 | Not met
CN1CCN(CC(=O)Nc2cc3cc(-c4cccnc4)c(F)cc3cn2)CC1 | Met
CN1CCC(C(=O)Nc2cc3cc(-c4cncc(N5CCCC5)c4)ccc3cn2)CC1 | Met
Cc1nccn1CC(=O)Nc1cc2cc(-c3cccnc3)ccc2cn1 | Met
Cc1cc2ncc(-c3ccc4cnc(NC(=O)c5ccnc(N6CCN(C)CC6)c5)cc4c3)cc2[nH]1 | Not met
O=C(CN1CCOCC1)Nc1cc2cc(-c3cccnn3)ccc2cn1 | Not met
CN(C)[C@H]1CC[C@H](C(=O)Nc2cc3cc(-c4cnccn4)ccc3cn2)CC1 | Met
[2H]c1nc([2H])c(-c2ccc3cnc(NC(=O)CN4CCN(C)CC4)cc3c2)c([2H])c1[2H] | Met
O=C(Nc1cc2cc(-c3cncc(C(F)F)c3)ccc2cn1)c1cccc(C2CCNCC2)c1 | Not met

API: the following record is the query input.
Prompt: API: query returns whether the compound falls strictly under 200 nM in EC50. Query: `CN1CCN(CC(=O)Nc2cc3cc(-c4cccnc4)ccc3cn2)CC1`
Completion: Not met

---

Tested on: secreted cytokines TNFα, IL-6 and KC-GRO in BV-2 cells (mouse microglial cells)
Experiment: Secreted cytokines in lipopolysaccharide-stimulated mouse glial cell line
Format: cell-based
Settings: LPS 250 ng/mL 5 hours, table does not say which cytokine
Reported EC50 by item:
// units = nM; emit number, no label

Here is how some compounds turned out for EC50.
CN1CCC(c2cccc(C(=O)Nc3cc4cc(-c5cncc(C(F)F)c5)ccc4cn3)c2)CC1 | 847
CN1CCCN(CC(=O)Nc2cc3cc(-c4cccnc4)ccc3cn2)CC1 | 1000
CN1CCN(Cc2cncc(-c3ccc4cnc(NC(=O)C5CC5)cc4c3)c2)CC1 | 177
[2H]c1nc([2H])c(-c2ccc3cnc(NC(=O)CN4CCCC4)cc3c2)c([2H])c1[2H] | 3230
O=C(Nc1cc2cc(-c3cccnc3)ccc2cn1)C12CCN(CC1)CC2 | 745
CC(C)(O)CN1CCCC(C(=O)Nc2cc3cc(-c4cnccn4)ccc3cn2)CC1 (stereo not drawn) | 717
O=C(CN1CCCC1)Nc1cc2cc(-c3cnccn3)ccc2cn1 | 1430
CN1CCC(C(=O)Nc2cc3cc(-c4cncc(F)c4)ccc3cn2)CC1 | 124
[2H]C1([2H])OC([2H])([2H])C([2H])([2H])N(CC(=O)Nc2cc3cc(-c4cccnc4)ccc3cn2)C1([2H])[2H] | 198
O=C(CN1CCOCC1)Nc1cc2cc(-c3cncc(F)c3)ccc2cn1 | 1320

Prompt: Sample `O=C(CN1CCOCC1)Nc1cc2cc(-c3cccnc3)ccc2cn1` — what was its EC50?
Completion: 75

Prompt: Data request, read-out EC50, for `CN1CCC(C(=O)Nc2cc3cc(-c4cnccn4)ccc3cn2)CC1`
Completion: 194

Prompt: Find the recorded EC50 belonging to `O=C(Nc1cc2cc(-c3cncc(NC4CCNCC4)n3)ccc2cn1)C1CCCCC1` and report it.
Completion: 60

Prompt: Suppose we examine the compound `O=C(Cn1ccnc1)Nc1cc2cc(-c3cccnc3)ccc2cn1` ; what EC50 value has been reported?
Completion: 21

Prompt: EC50 lookup needed for `O=C(CN1CCOCC1)Nc1cc2cc(-c3cccnc3)c(F)cc2cn1` , thanks.
Completion: 157

Prompt: Please give the measured EC50 for this compound: `O=C(Nc1cc2cc(-c3cnccn3)ccc2cn1)C1CCN(CCF)CC1`
Completion: 280

Prompt: Look at this compound and give its reported EC50. `O=C(Nc1cc2cc(-c3cncc(CN4CCCC4)c3)ccc2cn1)C1CC1`
Completion: 171

Prompt: Field request: EC50 | item: `CN1CCC(C(=O)Nc2cc3cc(-c4cccnc4)ccc3cn2)CC1`
Completion: 36

---

Molecular target: recombinant DYRK1A kinase (Homo sapiens (Human))
Assay: DYRK1A kinase assay (Ser/Thr 18 peptide Z-lyte, FRET)
Settings: DYRK1A kinase; head says EC50, method says IC50; ATP 30 μM
quantity.name: pEC50
Reminder that pEC50 means the negative base-10 logarithm of the concentration expressed in mol/L.

O=C(Nc1cc2cc(-c3cncc(CN4CCCC4)c3)ccc2cn1)C1CC1 [Compound 51] | 8.15
CC(C)Nc1cncc(-c2ccc3cnc(NC(=O)C4CCN(C(C)C)CC4)cc3c2)n1 [Compound 90] | 9.00
CC(C)N1CCC(Nc2cncc(-c3ccc4cnc(NC(=O)c5ccc(F)cc5)cc4c3)n2)CC1 [Compound 119] | 8.70

Prompt: Given the compound O=C(Nc1cc2cc(-c3cncc(CN4CCCC4)c3)ccc2cn1)c1ccc(F)cc1 [Compound 52] , what is its reported pEC50?
Completion: 7.92

Prompt: Endpoint output: pEC50 of O=C(Nc1cc2cc(-c3cnccn3)ccc2cn1)C1CCN(C2COC2)CC1 [Compound 78] . Value?
Completion: 7.89

Prompt: Endpoint output: pEC50 of O=C(Nc1cc2cc(-c3cncc(F)c3)ccc2cn1)[C@H]1C[C@H](N2CCOCC2)C1 [Compound 16] . Value?
Completion: 8.10

Prompt: What value of pEC50 has been recorded for this entry: CC(C)n1cc(C(=O)Nc2cc3cc(-c4cncc(NC5CCNCC5)n4)ccc3cn2)cn1 [Compound 138]
Completion: 8.70

Prompt: Using the record for CN1CCC(c2nc(C(=O)Nc3cc4cc(-c5cccnc5)ccc4cn3)co2)CC1 [Compound 142] , report its pEC50.
Completion: 6.16

Prompt: Look up pEC50: CN1CCC(Nc2cncc(-c3ccc4cnc(NC(=O)C5CCCC5)cc4c3)n2)CC1 [Compound 114]
Completion: 9.00

Prompt: I'd like to know its pEC50. The compound in question is O=C(Nc1cc2cc(-c3cncc(CN4CCOCC4)c3)ccc2cn1)C1CC1 [Compound 57]
Completion: 8.40

Prompt: Which pEC50 is reported for this compound? CC(C)Nc1cncc(-c2ccc3cnc(NC(=O)c4ccnc(N5CCN(C)CC5)c4)cc3c2)n1 [Compound 97]
Completion: 8.70

---

Tested on: Tau phosphorylation at Ser396 (pSer396) in SH-SY5Y cells
Test: Tau phosphorylation at Ser396 (pSer396) cell assay, ELISA/western blot
Type: cell-based, human
Conditions: Homo sapiens; SH-SY5Y cells, overnight (16-18 h); read-out: pSer396 Tau EC50
Protocol: SH-SY5Y cells (human neuroblastoma) were cultured in DMEM/F-12 medium supplemented with 15% FBS, Non-essential Amino Acid and Penicillin/Streptomycin. Two days before treatment, cells were seeded onto 96 well plates at 5×10^4 cells/well. […] Blot densitometry for pSer396 and β-actin were analyzed using ImageJ (NIH) and pSer396 Tau ELISA signal was used to plot, draw the curve fitting, and determine each compounds EC50 in Prism (GraphPad).
Categories are defined by ranges of EC50, namely 0 (below 1000 nM), 1 (1000 nM to below 5000 nM), 2 (5000 nM or more)

Look over these answered cases.
CN1CCN(CC(=O)Nc2cc3cc(-c4cccnc4)ccc3cn2)CC1 | 2
O=C(Nc1cc2cc(-c3cncc(CN4CCOCC4)c3)ccc2cn1)C1CC1 | 1
CNC(=O)c1cncc(-c2ccc3cnc(NC(=O)C4CCN(C)CC4)cc3c2)c1 | 2
O=C(Nc1cc2cc(-c3cncc(CN4CCC(O)CC4)c3)ccc2cn1)C1CC1 | 0
CN(C)[C@H]1CC[C@H](C(=O)Nc2cc3cc(-c4cnccn4)ccc3cn2)CC1 | 2
[2H]c1nc([2H])c(-c2ccc3cnc(NC(=O)CN4CCOCC4)cc3c2)c([2H])c1[2H] | 1
O=C(Nc1cc2cc(-c3cnccn3)ccc2cn1)[C@H]1C[C@H](N2CCOCC2)C1 | 1
O=C(Nc1cc2cc(-c3cnccn3)ccc2cn1)[C@H]1CC[C@H](N2CCOCC2)CC1 | 1

// switching to the query compound
Prompt: Into which category would you place `O=C(CN1CCOCC1)Nc1cc2cc(-c3cccnc3)ccc2cn1` ?
Completion: 1
